A collection of compounds and their measured EC50
tested on: Hepatitis C virus; test: Antiviral activity against Hepatitis C virus subtype 1b expressing NS3 D168V mutant infected in HuH7 cells after 48 hrs by luciferase reporter assay; format: functional, organism-based, Hepacivirus hominis; details: genotype 1b, Huh-7, 48 h

Study these solved cases before continuing.
CC(C)(C)NC(=O)N[C@H](C(=O)N1C[C@H]2[C@@H]([C@H]1C(=O)NC(CC1CCC1)C(=O)C(N)=O)C2(C)C)C(C)(C)C (stereo partly drawn) ... 83 nM
COc1ccc2c(O[C@@H]3C[C@H]4C(=O)N[C@]5(C(=O)O)C[C@H]5/C=C\CCCCC[C@H](NC(=O)OC5CCCC5)C(=O)N4C3)cc(-c3csc(NC(C)C)n3)nc2c1 ... 1810 nM

Note: attention shifts to another entry.
INPUT: Would you please give the reported EC50 of "COc1ccc2c(O[C@@H]3C[C@H]4C(=O)N[C@]5(C(=O)NS(=O)(=O)C6CC6)C[C@H]5/C=C\CCCCN(C)C(=O)[C@@H]4C3)cc(-c3nc(C(C)C)cs3)nc2c1C" with Hepatitis C virus?
OUTPUT: 17900 nM

* * *

system: Hepatitis C virus; experiment: Antiviral activity against Hepatitis C virus subtype 1b expressing NS3 D168N mutant infected in HuH7 cells after 48 hrs by luciferase reporter assay; type: functional, organism-based, Hepacivirus hominis; conditions: genotype 1b, Huh-7, 48 h
READOUT_KIND: EC50 (nM)
Numbers only; they are read as nM.

Example compounds with recorded EC50:
COc1ccc2c(O[C@@H]3C[C@H]4C(=O)N[C@]5(C(=O)NS(=O)(=O)C6CC6)C[C@H]5/C=C\CCCCN(C)C(=O)[C@@H]4C3)cc(-c3nc(C(C)C)cs3)nc2c1C ... 79
CC(C)(C)NC(=O)N[C@H](C(=O)N1C[C@H]2[C@@H]([C@H]1C(=O)NC(CC1CCC1)C(=O)C(N)=O)C2(C)C)C(C)(C)C (some centres undefined) ... 101
COc1ccc2c(O[C@@H]3C[C@H]4C(=O)N[C@]5(C(=O)O)C[C@H]5/C=C\CCCCC[C@H](NC(=O)OC5CCCC5)C(=O)N4C3)cc(-c3csc(NC(C)C)n3)nc2c1 ... 18

# input for lookup
INPUT: Report value only: EC50, Hepatitis C virus, "CCC[C@H](NC(=O)[C@@H]1[C@H]2CCC[C@H]2CN1C(=O)[C@@H](NC(=O)[C@@H](NC(=O)c1cnccn1)C1CCCCC1)C(C)(C)C)C(=O)C(=O)NC1CC1"
OUTPUT: 147

* * *

test system: Hepatitis C virus; experiment: Ratio of EC50 for Hepatitis C virus subtype 1b expressing NS3 R155K mutant to EC50 for Hepatitis C virus subtype 1b expressing WT NS3 infected in HuH7 cells after 48 hrs by luciferase reporter assay; type: functional, Hepacivirus hominis, genotype 1b, Huh-7
READOUT_KIND: Ratio EC50

Some solved entries appear below for comparison.
COc1ccc2c(O[C@@H]3C[C@H]4C(=O)N[C@]5(C(=O)NS(=O)(=O)C6CC6)C[C@H]5/C=C\CCCCN(C)C(=O)[C@@H]4C3)cc(-c3nc(C(C)C)cs3)nc2c1C ... 30
COc1ccc2c(O[C@@H]3C[C@H]4C(=O)N[C@]5(C(=O)O)C[C@H]5/C=C\CCCCC[C@H](NC(=O)OC5CCCC5)C(=O)N4C3)cc(-c3csc(NC(C)C)n3)nc2c1 ... 496
CCC[C@H](NC(=O)[C@@H]1[C@H]2CCC[C@H]2CN1C(=O)[C@@H](NC(=O)[C@@H](NC(=O)c1cnccn1)C1CCCCC1)C(C)(C)C)C(=O)C(=O)NC1CC1 ... 10

Kindly consider the entry below.
INPUT: Report Ratio EC50 for CC(C)(C)NC(=O)N[C@H](C(=O)N1C[C@H]2[C@@H]([C@H]1C(=O)NC(CC1CCC1)C(=O)C(N)=O)C2(C)C)C(C)(C)C (some centres undefined)
OUTPUT: 4.7

Where these numbers come from: ChEMBL document CHEMBL1671684
